substrate: O=C(O)C=C(O)C(=O)O; experiment: purified protein; conditions: pH 7.5, 22 °C, 10 mM potassium phosphate, 0.3 mM NADH, malate dehydrogenase, OAA added in dry acetone
Property name: Km

Bt FAHD2A (Bos taurus) (protein) ATQLPVLPRSEVTFLAPVTRPDKVVCVGMNYADHCREQNVPVPKEPIIFSKFASAIVGPYDNIILPPESQEVDWEVELAVVIGKRGKYIKATDAMAHVAGFTVAHDVSARDWQMGRNGKQWLLGKTFDTFCPLGPALVTKDSVADPHNLKICCRVNGEVMQSSNTNQMVFKTEELITWVSQFVTLYPGDIILTGTPPGVGVFRKPPVFLKKGDEVQCEIEELGVIINKVV | 20.2 ± 1.4 µM
Bs YisK (Bacillus subtilis subsp. subtilis str. 168) (protein) MKFATGELYNRMFVGLIIDDEKIMDLQKAEKKLFELETIPGSLIECIAEGDKFVAHARQLAEWAKKPNDELGSFMYSLSEVKLHAPIPKPSKNIICIGKNYRDHAIEMGSEADIPEHPMVFTKSPVTVTGHGDIVKSHEEVTSQLDYEGELAVVIGKSGTRISKEDAYDHVFGYTIVNDITARDLQKRHKQFFIGKSLDTTCPMGPVLVHKSSIQEPERLKVETRVNGELRQSGSASDMIFSIPELIETLSKGMTLEAGDIIATGTPSGVGKGFTPPKFLRSGDKIDITIDPIGTLSNQIG | 43.8 ± 8.1 µM
Hs FAHD2A (Homo sapiens) (protein) AAQLPVLPRSEVTFLAPVTRPDKVVCVGMNYVDHCKEQNVPVPKEPIIFSKFASSIVGPYDEVVLPPQSQEVDWEVELAVVIGKKGKHIKATDAMAHVAGFTVAHDVSARDWQMRRNGKQWLLGKTFDTFCPLGPALVTKDSVADPHNLKICCRVNGEVVQSGNTNQMVFKTEDLIAWVSQFVTFYPGDVILTGTPPGVGVFRKPPVFLKKGDEVQCEIEELGVIINKVV | 22.2 ± 3.6 µM
Hs FAHD2B (Homo sapiens) (protein) AAQLPVLPWSEVTFLAPVTWPDKVVCVGMNYVDHCKEQNVPVPKEPIIFSKFASSIVGPYDEVVLPPQSQEVDWEVELAVVIGKKGKHIKATDAMAHVAGFTVAHDVSARDWLTRRNGKQWLLGKTFDTFCPLGPALVTKDSVADPHNLKICCRVNGEVVQSSNTNQMVFKTEDLIAWVSQFVTFYPGDVILTGTPPGVGVFRKPPVFLKKGDEVQCEIEELGVIINKVV | 296 ± 12 µM
